test.system: WRN helicase (aa N517-P1238) (Homo sapiens, UniProt Q14191)
Construct: The core helicase motif of the WRN protein (aa N517-P1238) was produced for this assay; His (N); ZZ (N); 3C protease cleavage site (N); virus and BIICs made in SF9)
Sequence (Q14191 517-1238): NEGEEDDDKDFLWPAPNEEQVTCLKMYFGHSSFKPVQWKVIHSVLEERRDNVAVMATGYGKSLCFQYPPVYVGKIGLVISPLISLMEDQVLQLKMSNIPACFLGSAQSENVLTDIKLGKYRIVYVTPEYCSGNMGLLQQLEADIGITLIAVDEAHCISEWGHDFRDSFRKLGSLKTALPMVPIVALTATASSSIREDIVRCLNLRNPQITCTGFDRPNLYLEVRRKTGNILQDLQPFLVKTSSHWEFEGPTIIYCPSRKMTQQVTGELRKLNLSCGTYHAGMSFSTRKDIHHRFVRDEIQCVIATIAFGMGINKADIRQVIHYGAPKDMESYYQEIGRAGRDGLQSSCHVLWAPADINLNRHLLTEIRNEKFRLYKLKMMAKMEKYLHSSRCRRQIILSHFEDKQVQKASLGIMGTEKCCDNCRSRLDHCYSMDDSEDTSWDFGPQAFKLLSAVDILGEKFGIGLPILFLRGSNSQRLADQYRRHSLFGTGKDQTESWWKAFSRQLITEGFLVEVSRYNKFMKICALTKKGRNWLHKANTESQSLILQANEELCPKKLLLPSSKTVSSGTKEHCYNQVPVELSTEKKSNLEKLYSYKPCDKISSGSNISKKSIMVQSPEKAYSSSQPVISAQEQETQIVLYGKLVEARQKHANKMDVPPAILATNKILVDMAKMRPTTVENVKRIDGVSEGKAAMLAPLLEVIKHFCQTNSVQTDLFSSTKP
test: WRN ATPase assay (DNA dependent ATP hydrolysis, ADP-Glo)
experimental.conditions: 3 hours pre-incubation, 300 micromolar ATP, FLAP26 DNA; geometric mean of at least 2
Entries and their pIC50
Conceptually, pIC50 converts a concentration in mol/L into minus its log10.

Use the examples below as a reference point.
# molecule, test.system, experimental.value
records = [
    ("CC(=O)N1CCN(c2c(C)n(CC(=O)Nc3ccc(C(F)(F)F)cc3)c3nc(C4=CCN(CC(F)F)CC4)nn3c2=O)CC1", "WRN helicase (aa N517-P1238) (Homo sapiens, UniProt Q14191)", 6.22),
    ("Cc1c(N2CCN(C(=O)c3ncccc3N)CC2)c(=O)n2nc(N3CCOCC3)nc2n1CC(=O)Nc1ccc(C(F)(F)F)cc1", "WRN helicase (aa N517-P1238) (Homo sapiens, UniProt Q14191)", 6.22),
    ("CCc1ccc(NC(=O)Cn2c(C)c(N3CCN(C(C)=O)CC3)c(=O)n3nc(C4=CCCCO4)nc23)cc1Cl", "WRN helicase (aa N517-P1238) (Homo sapiens, UniProt Q14191)", 6.70),
]

State its pIC50 for this molecule: Cc1c(N2CCN(C(=O)Nc3nccs3)CC2)c(=O)n2nc(C3=CCOCC3)nc2n1CC(=O)Nc1ccc(C(F)(F)F)cc1
7.00

State its pIC50 for this molecule: CC(=O)N1CCN(c2c(C)n(CC(=O)Nc3cc(Cl)c(C(F)(F)F)nc3C)c3nc(C4=CCOCC4)nn3c2=O)CC1
6.30

* * *

test.system: WRN helicase (aa N517-P1238) (Homo sapiens, UniProt Q14191)
Construct: The core helicase motif of the WRN protein (aa N517-P1238) was produced for this assay; His (N); ZZ (N); 3C protease cleavage site (N); virus and BIICs made in SF9)
test: WRN ATPase assay (DNA dependent ATP hydrolysis, ADP-Glo)
experimental.conditions: 3 hours pre-incubation, 300 micromolar ATP, FLAP26 DNA; geometric mean of at least 2
Entries and their IC50
A complete answer gives the number followed by the unit.

Use the examples below as a reference point.
# molecule, test.system, IC50
rows = [
    ("CC(=O)N1CCN(c2c(C)n(CC(=O)Nc3ccc(C(F)(F)F)cc3)c3nc(-c4ccc(F)cc4)nn3c2=O)CC1 [Example 124]", "WRN helicase (aa N517-P1238) (Homo sapiens, UniProt Q14191)", "0.7 µM"),
    ("COCC1=CCN(c2nc3n(CC(=O)Nc4ccc(C(F)(F)F)cc4)c(C)c(N4CCN(C(C)=O)CC4)c(=O)n3n2)CC1 [Example 120]", "WRN helicase (aa N517-P1238) (Homo sapiens, UniProt Q14191)", "0.6 µM"),
    ("CCc1c(N2CCN(C(=O)c3c(O)ccc4nccn34)CC2)c(=O)n2nc(C3=CCOCC3)nc2n1CC(=O)Nc1ccc(C(F)(F)F)cc1C [Example 44]", "WRN helicase (aa N517-P1238) (Homo sapiens, UniProt Q14191)", "0.08 µM"),
    ("CC(=O)N1C2CCC1CN(c1c(C)n(CC(=O)Nc3ccc(C(F)(F)F)cc3)c3nc(C4=CCOCC4)nn3c1=O)C2 [Example 161]", "WRN helicase (aa N517-P1238) (Homo sapiens, UniProt Q14191)", "0.7 µM"),
]

The record that follows has no IC50 shown yet.
State its IC50 for this molecule: Cc1c(N2CCN(C(=O)c3cncc(F)c3O)CC2)c(=O)n2nc(C3=CCOCC3)nc2n1CC(=O)Nc1ccc(C(F)(F)F)cc1 [Example 22]
0.1 µM

* * *

Entries and their pIC50
test.system: WRN helicase (aa N517-P1238) (Homo sapiens)
Construct: The core helicase motif of the WRN protein (aa N517-P1238) was produced for this assay; His (N); ZZ (N); 3C protease cleavage site (N); made in house; host or cells: Sf21 insect cells (baculovirus; virus and BIICs made in SF9)
test: WRN ATPase assay (DNA dependent ATP hydrolysis, ADP-Glo)
Assay type: biochemical
experimental.conditions: 3 hours pre-incubation, 300 micromolar ATP, FLAP26 DNA; geometric mean of at least 2
Conceptually, pIC50 converts a concentration in mol/L into minus its log10.

Use the examples below as a reference point.
# compound, test.system, pIC50
rows = [
    ("CC(=O)N1CCN(c2c(C)n(CC(=O)Nc3ccc(C(F)(F)F)cc3C)c3nc(C4=CCOCC4)nn3c2=O)CC1 [Example 64]", "WRN helicase (aa N517-P1238) (Homo sapiens)", 6.05),
    ("CC(=O)N1CCN(c2nc3n(CC(=O)Nc4ccc(Cl)cc4)c(C)c(N4CCN(C(=O)c5cnon5)CC4)c(=O)n3n2)CC1 [Example 9]", "WRN helicase (aa N517-P1238) (Homo sapiens)", 7.10),
    ("CCc1ccc(NC(=O)Cn2c(C)c(N3CCN(C(C)=O)CC3)c(=O)n3nc(C4=CCOCC4)nc23)cc1C(F)(F)F [Example 72]", "WRN helicase (aa N517-P1238) (Homo sapiens)", 7.00),
    ("CC(=O)N1CCN(c2c(C)n(CC(=O)Nc3ccc(Cl)c4c3CCC4)c3nc(C4=CCOCC4)nn3c2=O)CC1 [Example 129]", "WRN helicase (aa N517-P1238) (Homo sapiens)", 6.10),
    ("CC(=O)N1CCN(c2c(C)n(CC(=O)Nc3ccc(C(F)(F)F)cc3F)c3nc(C4=CCOCC4)nn3c2=O)CC1 [Example 85]", "WRN helicase (aa N517-P1238) (Homo sapiens)", 6.30),
]

State its pIC50 for this compound: CC(=O)N1CCN(c2c(C)n(CC(=O)Nc3cc(C)c(C(F)(F)F)cc3Cl)c3nc(C4=CCOCC4)nn3c2=O)CC1 [Example 89]
6.22

* * *

test.system: WRN helicase (aa N517-P1238) (Homo sapiens, UniProt Q14191)
Construct: The core helicase motif of the WRN protein (aa N517-P1238) was produced for this assay; His (N); ZZ (N); 3C protease cleavage site (N); virus and BIICs made in SF9)
test: WRN ATPase assay (DNA dependent ATP hydrolysis, ADP-Glo)
experimental.conditions: 3 hours pre-incubation, 300 micromolar ATP, FLAP26 DNA; geometric mean of at least 2
pIC50: −log10 of the molar value.
Label 1.0 when pIC50 >= 7; otherwise 0.0.

# compound, assigned.category
measured = [
    ("CC(=O)N1CCN(c2c(C)n(CC(=O)Nc3cc(Cl)c(C)cc3Cl)c3nc(C4=CCOCC4)nn3c2=O)CC1", 0.0),
    ("CCc1c(N2CCN(C(C)=O)CC2)c(=O)n2nc(C3=CCOCC3)nc2n1CC(=O)Nc1ccc(C(F)(F)F)cc1F", 0.0),
    ("CC(=O)N1CCN(c2nc3n(CC(=O)Nc4ccc(Cl)cc4)c(C)c(N4CCN(C(=O)c5n[nH]c(=O)[nH]5)CC4)c(=O)n3n2)CC1", 1.0),
]

Query compound follows.
Quick check: does CC(=O)N1CCN(c2c(C)n(CC(=O)Nc3ccc(S(F)(F)(F)(F)F)cc3C)c3nc(C4=CCOCC4)nn3c2=O)CC1 have pIC50 greater than or equal to 7?
0.0

* * *

Entries and their IC50
test.system: WRN helicase (aa N517-P1238) (Homo sapiens, UniProt Q14191)
Construct: The core helicase motif of the WRN protein (aa N517-P1238) was produced for this assay; His (N); ZZ (N); 3C protease cleavage site (N); virus and BIICs made in SF9)
test: WRN ATPase assay (DNA dependent ATP hydrolysis, ADP-Glo)
experimental.conditions: 3 hours pre-incubation, 300 micromolar ATP, FLAP26 DNA; geometric mean of at least 2
Express the result in nM but write the number alone.

# molecule, test.system, IC50 (nM)
records = [
    ("Cc1c(N2CCN(C(=O)c3c[nH]c(=O)cn3)CC2)c(=O)n2nc(N3CCOCC3)nc2n1CC(=O)Nc1ccc(C(F)(F)F)cc1 [Example 166]", "WRN helicase (aa N517-P1238) (Homo sapiens, UniProt Q14191)", 100),
]

State its IC50 for this molecule: Cc1c(N2CCN(C(=O)c3cc(F)cnc3O)CC2)c(=O)n2nc(C3=CCOCC3)nc2n1CC(=O)Nc1ccc(C(F)(F)F)cc1 [Example 21]
100

State its IC50 for this molecule: CCc1c(N2CCN(C(=O)c3ccc(Cl)c(F)c3O)CC2)c(=O)n2nc(C3=CCOCC3)nc2n1CC(=O)Nc1ccc(C(F)(F)F)cc1C [Example 45]
90

State its IC50 for this molecule: Cc1c(N2CCN(C(=O)c3c(O)cccc3Cl)CC2)c(=O)n2nc(C3=CCOCC3)nc2n1CC(=O)Nc1ccc(C(F)(F)F)cc1 [Example 149]
90

State its IC50 for this molecule: Cc1c(N2CCN(C(=O)c3cc(F)ccc3O)CC2)c(=O)n2nc(C3=CCOCC3)nc2n1CC(=O)Nc1ccc(C(F)(F)F)cc1 [Example 17]
50

State its IC50 for this molecule: CCc1c(N2CCN(C(=O)c3c(O)ccc4cccnc34)CC2)c(=O)n2nc(C3=CCOCC3)nc2n1CC(=O)Nc1ccc(C(F)(F)F)cc1 [Example 14]
40

State its IC50 for this molecule: CCc1c(N2CCN(C(=O)c3nccc4cccc(O)c34)CC2)c(=O)n2nc(C3=CCOCC3)nc2n1CC(=O)Nc1ccc(C(F)(F)F)cc1C [Example 50]
300

State its IC50 for this molecule: CC(=O)N1CCN(c2c(C)n(CC(=O)Nc3ccc(C(F)(F)F)cc3)c3nc(C4=CCC(N5CC(F)(F)C5)CC4)nn3c2=O)CC1 (stereo not drawn) [Example 114]
400

State its IC50 for this molecule: Cc1c(C2CCN(C(=O)c3c(F)ccc(F)c3O)CC2)c(=O)n2nc(C3=CCCCO3)nc2n1CC(=O)Nc1ccc(C(F)(F)F)cc1 [Example 137]
50

This collection of values is drawn from patent US20260250289A1.
